src = PubChem BioAssay (NCI)

System: MALME-3M melanoma
assay-text: NCI tumour cell line growth inhibition, 48 h; in the data active = GI50 below about 0.43 µM; inactive = the rest
Where a SMILES comes first, the peptide text is derived from it. The star is where a group is joined. Palmitoyl = CCCCCCCCCCCCCCCC(=O)*
Entry note: the call must match one of active, inactive

1. Oc1cccc2ccc(N/N=C/c3cc(CN4CCOCC4)c(O)c4ncccc34)nc12: active
2. C/C(=N/N=C(\[O-])c1ccncc1)C(F)(F)F.C/C(=N\N=C(/[O-])c1ccncc1)C(F)(F)F.[Ni+2]: inactive
3. C#CCNC(=O)[C@H](CC)[C@H]1CC[C@H](C)[C@H]([C@@H](C)[C@H](O)[C@H](C)C(=O)[C@H](CC)C2O[C@]3(C=CC(=O)[C@]4(CC[C@@](C)([C@H]5CC[C@](O)(CC)[C@H](C)O5)O4)O3)[C@H](C)C[C@@H]2C)O1 (stereo not given in full): inactive

So what was the verdict on CSc1nc2sc3c(c2c(=O)n1-c1ccc(C(C)C)cc1)CCC(=O)C3 in this test?
inactive

Repeat for the following compound: COC(=O)CCCCC(=O)c1c(C)[nH]c(/C=C2\N=C(c3ccc[nH]3)C=C2OC)c1C
inactive

// next record O=[N+]([O-])c1ccc(N2CCOCC2)c2c1no[n+]2[O-]
inactive

Quick one: COc1ccc(N(CC(=O)NCCC[Te]c2ccccc2)C(=O)CNC(=O)OC(C)(C)C)cc1
inactive

Okay, and CCCCCCCCCCCCCCCC(=O)N1CCCC1C(=O)NCC(=O)NC(Cc1ccccc1)C(=O)NC(C)C(=O)NC(CO)C(=O)NC(Cc1ccc(O)cc1)C(=O)NC(CCCCN)C(=O)NC(CC(C)C)C(=O)NC(CCCN=C(N)N)C(=O)N1CCCC1C(=O)NCC(N)=O (stereo not given) (Palmitoyl-PGFASYKLRPG-NH2; configuration not given here) ?
inactive

Also CCc1cccc(C)c1NC(=O)c1sc2nc3c(cc2c1N)C(=O)CCC3 , if possible.
inactive

Would you mind doing C=CCN1CC(=O)N2[C@@H](Cc3ccc(O)cc3F)C(=O)N(Cc3cccc(N4CC(N5CCN(CC)CC5)C4)n3)C[C@@H]2N1C(=O)NCc1ccccc1 as well?
active

Lookup COC1C(O)C(CO)OC(OC2C(O)COC(OC3C(C)OC(OC4C(O[C@H]5CC[C@@]6(C)C(CC=C7[C@H]6CCC68C(=O)O[C@@](C)(CCCC(C)C)[C@H]6[C@@H](OC(C)=O)C[C@@]78C)C5(C)C)OCC(OS(=O)(=O)O)C4O)C(OC4OCC(O)C(O)C4O)C3O)C2O)C1O (stereo not given in full)
active
